Exercise: for every item that follows, state its recorded viability at 28.5 h, 10 µM.
# protocolText: in vitro
# conditionSummary: human, hela cells, % viability
# number only, unit % dropped from output

Data request, read-out viability at 28.5 h, 10 µM, for `CNC(=O)C1(Cc2ccccc2-c2ccccc2)CCN(C(=O)Cc2cccc(C)c2)CC1`
104

Data request, read-out viability at 28.5 h, 10 µM, for `CC(C)Nc1nccnc1OCCc1c[nH]c2ccccc12`
79.7

Data request, read-out viability at 28.5 h, 10 µM, for `O=C(Nc1ccc(OCc2ccccc2F)cc1)c1ccc(-n2cnnc2)cc1`
81.4

Data request, read-out viability at 28.5 h, 10 µM, for `COc1ccc(CCN2C(=O)/C(=C\c3c(NCCO)nc4c(C)cccn4c3=O)SC2=S)cc1`
79.9

Data request, read-out viability at 28.5 h, 10 µM, for COc1cccc(OCC(O)CN2CCN(Cc3ccccc3)CC2)c1 (stereo not shown) [CBK074856C]
108

Data request, read-out viability at 28.5 h, 10 µM, for `CCc1nnc(NS(=O)(=O)c2ccc(NC(=O)c3ccc([N+](=O)[O-])cc3)cc2)s1`
95.4

Data request, read-out viability at 28.5 h, 10 µM, for `CN1CCC(=NNC(=O)c2ccc(CN3CCOCC3)cc2)CC1`
86.6

Data request, read-out viability at 28.5 h, 10 µM, for `Cc1ccc(Oc2ccc([N+](=O)[O-])cc2F)c(Br)c1`
90.3

Data request, read-out viability at 28.5 h, 10 µM, for `CCOc1ccccc1OCC(=O)NN`
93.2

Data request, read-out viability at 28.5 h, 10 µM, for `COc1ccccc1CN(C)C(=O)Nc1ccc(S(N)(=O)=O)cc1`
90.4

Data request, read-out viability at 28.5 h, 10 µM, for `CN1C(=O)COc2ccccc2C/C=C/C[C@@H]2[C@H]1CCCN2C(=O)CCCNc1ncccn1`
112

Data request, read-out viability at 28.5 h, 10 µM, for `CC(C)NS(=O)(=O)c1ccc(NC(=O)Cc2cccc3ccccc23)cc1`
94.8

Data request, read-out viability at 28.5 h, 10 µM, for Cc1cc(C)n(CC(=O)NC(CC(=O)O)c2ccccc2Cl)n1 (stereo not shown)
106

Data request, read-out viability at 28.5 h, 10 µM, for COc1cc(F)cc(OC2CCNCC2)c1NC(=O)/C=C/c1cccnc1 [CBK050344T]
103

Data request, read-out viability at 28.5 h, 10 µM, for `COCCCn1c(=O)[nH]c2ncc(-c3cc(OC)c(OC)c(OC)c3)nc21`
91.8

Data request, read-out viability at 28.5 h, 10 µM, for `c1ccc(Cn2c(-c3ccccc3)c(-c3ccccc3)c3c2ncn2nc(-c4cccnc4)nc32)cc1`
109

Data request, read-out viability at 28.5 h, 10 µM, for `CCOC(=O)N1CCN(Cn2nc(COc3ccccc3)n(C)c2=S)CC1`
97.4

Data request, read-out viability at 28.5 h, 10 µM, for `C[C@@H]1CN(C(=O)c2n[nH]c3ccccc23)C[C@H](C)O1`
98.6

Data request, read-out viability at 28.5 h, 10 µM, for `Nc1ncc(-c2cccc(OC(F)(F)F)c2)nc1-c1ccc(C(=O)N2CCOCC2)cc1`
96.8

---

# protocolText: in vitro
# conditionSummary: human, hela cells, % viability
Exercise: for every item that follows, state its recorded viability at 28.5 h, 10 µM.
Could you kindly put the unit after your number?

Data request, read-out viability at 28.5 h, 10 µM, for CC1CCc2c(sc3ncn(C4CCNCC4)c(=O)c23)C1 (centres unmarked) [CBK282349]
91.4%

Data request, read-out viability at 28.5 h, 10 µM, for Cc1cc(C)c2c(c1)-c1c(ssc1=S)C(C)(C)N2C(=O)CSc1nncn1C [CBK263035]
106%

Data request, read-out viability at 28.5 h, 10 µM, for CC(=O)Nc1cccc(NC(=O)CN(C)S(=O)(=O)c2ccc(F)cc2)c1 [CBK269951]
90.2%

Data request, read-out viability at 28.5 h, 10 µM, for Nc1ncnc(NCCc2c[nH]c3ccccc23)c1[N+](=O)[O-] [CBK267283]
29.6%

Data request, read-out viability at 28.5 h, 10 µM, for Cn1nc(NC(=O)Cc2ccsc2)c2c(N3CCOCC3)cccc21 [CBK307023]
109%

Data request, read-out viability at 28.5 h, 10 µM, for Cc1cccc(-c2ncc(C(=O)NCc3csc4ccc(Cl)cc34)cc2-c2ccncc2)c1 [CBK036770]
89.6%

Data request, read-out viability at 28.5 h, 10 µM, for Cc1ccc(CN2CC[C@@H]3[C@H](C2)[C@@H](c2ccsc2)CN3C(=O)c2ccccc2F)cc1 [CBK285658]
96.5%

Data request, read-out viability at 28.5 h, 10 µM, for Nc1nc(=O)c2cnc3c(Cl)cccc3c2s1 [CBK291229]
89.5%

Data request, read-out viability at 28.5 h, 10 µM, for Cc1n[nH]c(C)c1CCC(=O)N/N=C\c1cccc(Oc2ccccc2)c1 [CBK263384]
98.8%

Data request, read-out viability at 28.5 h, 10 µM, for CN(CCOC(=O)c1cccnc1)C(C)(C)C [CBK027543C]
88.8%

Data request, read-out viability at 28.5 h, 10 µM, for Nc1ccc2c(-c3ccsc3)ccnc2n1 [CBK067637]
95.5%

Data request, read-out viability at 28.5 h, 10 µM, for COCC(C)NS(=O)(=O)c1cc(C)ccc1OC (centres unmarked) [CBK270037]
85.6%

Data request, read-out viability at 28.5 h, 10 µM, for CN(CCO)C(=O)c1cn2cc(-c3cccs3)n(CC3CC3)c(=O)c2n1 [CBK307370]
92.8%

Data request, read-out viability at 28.5 h, 10 µM, for CSc1nnc(-c2ccco2)n1-c1cccc(Cl)c1C [CBK067723]
93.1%

Data request, read-out viability at 28.5 h, 10 µM, for CCCn1cc(C(=O)NCC2CCN(c3ccccc3F)C2)c(C)n1 (centres unmarked) [CBK304634]
79%

Data request, read-out viability at 28.5 h, 10 µM, for Cc1ccccc1N1CCN(C(=O)c2nn[nH]c2Nc2ccccc2F)CC1 [CBK288032]
101%

Data request, read-out viability at 28.5 h, 10 µM, for O=C(c1cccs1)N1CCCN(Cc2cn3ccccc3n2)CC1 [CBK305304]
102%

Data request, read-out viability at 28.5 h, 10 µM, for O=[N+]([O-])c1ccc(CN2CCC(Oc3nccnc3OCc3cccnc3)CC2)cc1 [CBK083162T]
95.8%

Data request, read-out viability at 28.5 h, 10 µM, for O=C1NCCN1CCOc1nccnc1-c1cnn(Cc2ccccc2)c1 [CBK107094]
86.3%

Data request, read-out viability at 28.5 h, 10 µM, for N=c1n(CCN2CCCCC2)c2ccccc2n1CC(=O)c1cccc([N+](=O)[O-])c1 [CBK263481B]
103%
